# measured.on: UniProtKB P0DTD1
# assay.info: Inhibition of SARS-CoV-2 3CL protease
property.label: pIC50
Interpret pIC50 as the negative base-10 log of the concentration measured in mol/L.

q: Fill blank: measured pIC50 of the compound O=C[C@H](C[C@@H]1CCNC1=O)NC(=O)[C@@H]1[C@H]2CCC[C@H]2CN1C(=O)CCc1cc(F)cc(F)c1 is ____.
a: 5.12

----------
# measured.on: Replicase polyprotein 1ab (Severe acute respiratory syndrome coronavirus 2)
# assay.info: Inhibition of SARS-CoV-2 3CL protease expressed in escherichia coli measured after 24 hrs by SDS-PAGE
property.label: IC50 (nM)
All answers are understood in nM, so give the number only.

q: Find the measured IC50: item CNC(=O)c1cc(Br)cc([N+](=O)[O-])c1N[C@@H]1CCCC[C@@H]1NC(=O)c1cccc2ccccc12 , target or system Replicase polyprotein 1ab (Severe acute respiratory syndrome coronavirus 2).
a: 72

----------
# measured.on: Replicase polyprotein 1ab (Severe acute respiratory syndrome coronavirus 2, UniProt P0DTD1)
# assay.info: Inhibition of SARS-CoV-2 HKU-001a 3CL protease
property.label: IC50 (nM)
All answers are understood in nM, so give the number only.

q: Fill blank: measured IC50 of the compound [2H][C@](C(=O)N[C@@H](C)c1ccc(F)cc1)(c1cccnc1)N(C(=O)C(C)=O)c1ccc2c(c1)oc1ccccc12 is ____.
a: 8.1

----------
# System: SARS-CoV-2
# assay.info: Antiviral activity against SARS-CoV-2 infected in […] Caco-2 cells
# Type: functional, organism-based
# details: Severe acute respiratory syndrome coronavirus 2, Caco-2
property.label: pEC50
Interpret pEC50 as the negative base-10 log of the concentration measured in mol/L.

q: Fill blank: measured pEC50 of the compound C[C@H](NC(=O)[C@@H](c1cccnc1)N(C(=O)C(Cl)Cl)c1ccc(-c2ccccc2)cc1)c1ccccc1 is ____.
a: 5.69

----------
# assay.info: Oral bioavailability in Beagle dog by LC-MS/MS analysis
# Format: ADME, organism-based, Canis lupus familiaris
# details: in vivo
property.label: bioavailability (%)
All answers are understood in %, so give the number only.

q: Fill blank: measured bioavailability of the molecule [2H][C@](C(=O)N[C@@H](C)c1ccc(F)cc1)(c1cccnc1)N(C(=O)C(C)=O)c1ccc2c(c1)oc1ccccc12 is ____.
a: 85.7

----------
# assay.info: Oral bioavailability in mouse by LC-MS/MS analysis
# Type: ADME, organism-based
# details: in vivo
property.label: bioavailability (%)
All answers are understood in %, so give the number only.

q: Fill blank: measured bioavailability of the molecule [2H][C@](C(=O)N[C@@H](C)c1ccc(F)cc1)(c1cccnc1)N(C(=O)C(C)=O)c1ccc2c(c1)oc1ccccc12 is ____.
a: 92.9

----------
# Tested on: SARS-CoV-2
# assay.info: Antiviral activity against SARS-CoV-2 infected in African green monkey Vero E6 cells
# Assay type: functional, organism-based
# details: Severe acute respiratory syndrome coronavirus 2, Vero C1008
property.label: pEC50
Interpret pEC50 as the negative base-10 log of the concentration measured in mol/L.

q: Fill blank: measured pEC50 of the compound C[C@H](NC(=O)[C@@H](c1cccnc1)N(C(=O)C(Cl)Cl)c1ccc(-c2ccccc2)cc1)c1ccccc1 is ____.
a: 6.05

----------
# assay.info: Inhibition of human cathepsin using Z-Phe-Arg-AMC as substrate incubated for 30 mins by FRET assay
pIC50: −log10 of the molar value.
property.label: pIC50

q: Fill blank: measured pIC50 of the compound C[C@H](NC(=O)[C@@H](c1cccnc1)N(C(=O)C(Cl)Cl)c1ccc(-c2ccccc2)cc1)c1ccccc1 is ____.
a: < 4.70
